The measurements presented in this section are drawn from the nanobody polyreactivity screen of Harvey et al. (2022).

# ASSAY_COMMENT: yeast display, Sf9 membrane polyspecificity reagent, FACS + sequencing; frameworks hold sequencing errors
PARAMETER_MEASURED: polyreactivity (PSR sort gate)

Worked examples follow.
Prompt line: Value lookup for polyreactivity (PSR sort gate); key = QVHLVESGGGLVQAGGSLRLSCAASGFTFRRYAMGWDRQAPGKERELVASISSGGSTNYADSVKGRCTISRDNAKNTVYLQMNSLIPEDTAVYYCAVSYRSFRYYWERYYSWGQGTQVTVSS
Response line: high polyreactivity

Prompt line: Okay, and QVQLEESVGGLDQAGGSLRLSCAASGHIIVYYPLGWYRQAPGKERELVAAITSGGSTNYADSGKGRFTISRDNAKNTVYLQMNSLKPADSAVYYCAARQWFSHRRWGGSRYDYWGQGTQVTVSS ?
Response line: low polyreactivity

Prompt line: Okay, and QVQLVESGGGLVQAGGSLRLSCAASGIISYLYAMGWYRQAPGKERELVAVIRTSDAITYYADSVKGRFTISRDNAKNTVYLQMNSLKPEDTAVYYCAAEDVYEYDYWGQGTQVTVSS ?
Response line: high polyreactivity

Prompt line: Okay, and QVQLVESGGGLVQAGGSLRLSCAASGFIFPLYTMGWYRQAPGKERELVAAISWIGGRTYYADSVKGRFTISRDNAKNTVYLQMNSLKPEDSAVYYCAKDPTGGGYGYDYWGQGTQVTVSS ?
Response line: low polyreactivity

# ---- query sequence ----
Prompt line: Value lookup for polyreactivity (PSR sort gate); key = QVQLVESGGGLVQAGGSLRLSCAASGGTFGVNAMGWYRQAPGKERELVAAISSSGGRTYYADSVKGRFTISRDNAKNTVFLQMNSLKPEDTAVYYCAARNYFWGQGTQVTVSS
Response line: low polyreactivity

----------
# ASSAY_COMMENT: yeast display, Sf9 membrane polyspecificity reagent, FACS + sequencing; frameworks hold sequencing errors
PARAMETER_MEASURED: polyreactivity (PSR sort gate)

Prompt line: Value lookup for polyreactivity (PSR sort gate); key = QVQLVESGGGLVQAGGSLRLSCAASGYTSAKNGMGWYRQAPGKEREFVAGISRSGSSTYYADSVKGRFTISRDNAKNTVYLQMNSLKPEDTAVYFCAADWSVFTYFYGYDYWGQGTQVTVSS
Response line: low polyreactivity

Prompt line: Okay, and QVQLVESGGGLVHAGGSLRLSCAASGFTFGPYAMGWYRQAPRKERELVAAITGSGGITYYADSVKGRFTISRDNAKNTVYLQKNSLKPEDTAVYYCAAEYPYVYGTYSDSYTEYDYWGQGTQVTVSS ?
Response line: low polyreactivity

----------
# ASSAY_COMMENT: yeast display, Sf9 membrane polyspecificity reagent, FACS + sequencing; frameworks hold sequencing errors
PARAMETER_MEASURED: polyreactivity (PSR sort gate)

Prompt line: Value lookup for polyreactivity (PSR sort gate); key = QVQLVESGGGLVHAGGSLRLSCAASGSTFYQNGMGWYRQAHGQERELVAALTGDGGSTYYADSVKGRFTISRDNAKNTVSLHMNSLKPEDTAVYYCAADWTVITDSQFNSGYDYWGQGTQVTVSS
Response line: low polyreactivity

Prompt line: Okay, and QVQLVESGGGLVQAGGSLRLSCAASGSIFRGYGMGWYRQAPGKERELVAANNYSGGSTYYADSVKGRFTISRDNAKNTVYLQMNSLKPEDTAVYYCNKVYYRQRGEYYYWGQGTQVTVSS ?
Response line: high polyreactivity

Prompt line: Okay, and QVQLVESGGGLVQEGGSLRLSCAASGITFSRNAMGWYRPAPGKERELVATITSGGSTNYADSVKGRFTISRDNAKNNVYLQMNSLKPEDTAVYYCNAVWNTFISGRSYDYWGQGTQVTVSS ?
Response line: low polyreactivity

Prompt line: Okay, and QVQLVESGGGLVQAGGSLRLSCAASGSTFTYNAMGWYRQAPGKERELVAAIRSNGGSTYYADSVKGRFTISRDNAKNTVYLQMNSLKPEDTAVYYCAARLSVLGGYRGRNAWRFDHWGLGTQVTVSS ?
Response line: high polyreactivity

# ---- query sequence ----
Prompt line: Value lookup for polyreactivity (PSR sort gate); key = QVQLVESGGGLVHAGGSLRLSCAASGSIFVWNAMGWYRQAPGKERELVARIRYSSNTYYADSVKGRFTISRDNAKNNVYLQMTSLKPEDTAVYYCAAGSTRYAGWTYNYWGQGTHVTVSS
Response line: high polyreactivity
